Target: Lysine-specific demethylase 4D (Homo sapiens)
Experiment: Inhibition of KDM4D (unknown origin)
Value type: IC50 (nM)
// return numeric value only (unit: nM, not printed)

Ask: Write down the reported IC50 of Clc1ccc(N/N=C(\c2ccccc2)c2ccccn2)nc1 , test system: Lysine-specific demethylase 4D (Homo sapiens).
Result: 290

====

Target: Lysine-specific demethylase 4D (Homo sapiens) (UniProt Q6B0I6)
Sequence (whole entry): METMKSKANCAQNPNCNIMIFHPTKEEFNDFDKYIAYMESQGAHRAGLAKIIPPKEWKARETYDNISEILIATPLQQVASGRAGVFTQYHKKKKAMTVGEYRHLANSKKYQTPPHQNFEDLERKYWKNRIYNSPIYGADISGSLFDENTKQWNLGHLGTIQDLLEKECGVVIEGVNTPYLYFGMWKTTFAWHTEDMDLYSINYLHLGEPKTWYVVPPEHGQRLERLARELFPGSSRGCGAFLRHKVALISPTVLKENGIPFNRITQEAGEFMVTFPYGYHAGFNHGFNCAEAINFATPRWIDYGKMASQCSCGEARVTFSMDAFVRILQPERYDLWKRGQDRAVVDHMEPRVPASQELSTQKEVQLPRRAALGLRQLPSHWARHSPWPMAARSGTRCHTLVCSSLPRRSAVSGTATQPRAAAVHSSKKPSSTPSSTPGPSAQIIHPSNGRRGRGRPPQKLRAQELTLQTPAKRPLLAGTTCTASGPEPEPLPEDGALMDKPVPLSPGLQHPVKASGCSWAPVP
Experiment: Inhibition of human KDM4D expressed in Escherichia coli BL21 (DE3) at 1 uM using biotinylated H3-derived peptide and 2-OG as substrate preincubated for 15 mins followed by substrate addition and measured after 1 hr by AlphaLISA assay
Details: time 75.0 min
Value type: inhibition

Examples from the recorded data:
Ask: What measured inhibition goes with CC(C)(C)OC(=O)N[C@@H]1CCN(C(c2cc3c(cc2O)OCO3)C2CCCCC2)C1 (stereo partly specified) ?
Result: -7.31%

Ask: What measured inhibition goes with O=C(O[C@@H]1CCN(C(c2ccncc2)c2cc3c(cc2O)OCO3)C1)C1CC1 (stereo partly specified) ?
Result: 98.2%

Ask: What measured inhibition goes with COc1ccc(C(c2ccncc2)N2CC[C@@H](NC(=O)OC(C)(C)C)C2)c(O)c1 (stereo partly specified) ?
Result: 44.3%

Ask: What measured inhibition goes with CC(C)(C)OC(=O)N[C@@H]1CCN(C(c2cc3c(cc2O)OCO3)c2ccc(F)cc2F)C1 (stereo partly specified) ?
Result: 97.3%

More entries:
Ask: What measured inhibition goes with O=C(N[C@@H]1CCN(C(c2ccncc2)c2cc3c(cc2O)OCO3)C1)c1cccc(F)c1 (stereo partly specified) ?
Result: 99.7%

Ask: What measured inhibition goes with CC(C)(C)OC(=O)N[C@@H]1CCN(C(c2ccc(C#N)c(F)c2)c2cc3c(cc2O)OCO3)C1 (stereo partly specified) ?
Result: 98.7%

====

Biological target: Lysine-specific demethylase 4D (Homo sapiens)
Test: Inhibition of human KDM4D expressed in Escherichia coli BL21 (DE3) using biotinylated H3-derived peptide and 2-OG as substrate preincubated for 15 mins followed by substrate addition and measured after 1 hr by AlphaLISA assay
Classify: class 1 when IC50 is strictly less than 200 nM; class 0 when IC50 is not.

Ask: Please state whether IC50 is below 200 nM for CC(C)(C)OC(=O)N[C@@H]1CCN(C(c2ccc(C#N)c(F)c2)c2cc3c(cc2O)OCO3)C1 (stereo not given in full)
Result: class 0

Consider the additional compound presented here.
Ask: Please state whether IC50 is below 200 nM for COc1ccccc1C(=O)N[C@@H]1CCN(C(c2ccncc2)c2cc3c(cc2O)OCO3)C1 (stereo not given in full)
Result: class 0

====

Molecular target: Lysine-specific demethylase 4D (Homo sapiens)
Assay: Inhibition of human KDM4D expressed in Escherichia coli BL21 (DE3) at 1 uM using biotinylated H3-derived peptide and 2-OG as substrate preincubated for 15 mins followed by substrate addition and measured after 1 hr by AlphaLISA assay
Settings: time 75.0 min
Item-by-item account of inhibition
// return numeric value only (unit: %, not printed)

Ask: What measured inhibition goes with CN(C)[C@@H]1CCN(C(c2ccncc2)c2cc3c(cc2O)OCO3)C1 (some centres undefined) ?
Result: 95

Ask: What measured inhibition goes with CCOc1ccccc1C(=O)N[C@@H]1CCN(C(c2ccncc2)c2cc3c(cc2O)OCO3)C1 (some centres undefined) ?
Result: 94.4

Ask: What measured inhibition goes with CC(C)(C)OC(=O)N[C@@H]1CCN(Cc2cc3c(cc2O)OCO3)C1 ?
Result: -4.8

Ask: What measured inhibition goes with Cn1nccc1C(c1cc2c(cc1O)OCO2)N1CC[C@@H](NC(=O)OC(C)(C)C)C1 (some centres undefined) ?
Result: 94.6

Ask: What measured inhibition goes with CC(C)(C)OC(=O)N[C@@H]1CCN(C(c2ccc(-c3ccccn3)cc2)c2cc3c(cc2O)OCO3)C1 (some centres undefined) ?
Result: 99.8

====

Target: Lysine-specific demethylase 4D (Homo sapiens, UniProt Q6B0I6)
Experiment: Inhibition of human KDM4D expressed in Escherichia coli BL21 (DE3) using biotinylated H3-derived peptide and 2-OG as substrate preincubated for 15 mins followed by substrate addition and measured after 1 hr by AlphaLISA assay
Classify: TRUE when IC50 is strictly less than 200 nM; FALSE when IC50 is not.

Record excerpt, results attached:
Ask: Please state whether IC50 is below 200 nM for CCOc1ccccc1C(=O)N[C@@H]1CCN(C(c2ccncc2)c2cc3c(cc2O)OCO3)C1 (stereo partly drawn)
Result: FALSE

Ask: Please state whether IC50 is below 200 nM for CC(C)(C)OC(=O)N[C@@H]1CCN(C(c2ccc(-c3cccnc3)cc2)c2cc3c(cc2O)OCO3)C1 (stereo partly drawn)
Result: FALSE

Ask: Please state whether IC50 is below 200 nM for CC(C)(C)OC(=O)N[C@@H]1CCN(C(c2cc3c(cc2O)OCO3)c2ccnc3ccccc23)C1 (stereo partly drawn)
Result: TRUE

Ask: Please state whether IC50 is below 200 nM for CC(C)(C)OC(=O)N[C@@H]1CCN(C(c2ccc(-c3ccccn3)cc2)c2cc3c(cc2O)OCO3)C1 (stereo partly drawn)
Result: TRUE

Ask: Please state whether IC50 is below 200 nM for CC(C)(C)OC(=O)N[C@@H]1CCN(C(c2cnccn2)c2cc3c(cc2O)OCO3)C1 (stereo partly drawn)
Result: FALSE

More entries:
Ask: Please state whether IC50 is below 200 nM for CC(C)(C)C(=O)N[C@@H]1CCN(C(c2ccncc2)c2cc3c(cc2O)OCO3)C1 (stereo partly drawn)
Result: FALSE

Ask: Please state whether IC50 is below 200 nM for COc1cc(O)c(C(c2ccncc2)N2CC[C@@H](NC(=O)OC(C)(C)C)C2)cc1OC (stereo partly drawn)
Result: FALSE

Ask: Please state whether IC50 is below 200 nM for CC(C)(C)OC(=O)N[C@@H]1CCN(C(c2cc3c(cc2O)OCO3)c2ccc(C#N)cc2F)C1 (stereo partly drawn)
Result: FALSE

Ask: Please state whether IC50 is below 200 nM for O=S(=O)(N[C@@H]1CCN(C(c2ccncc2)c2cc3c(cc2O)OCO3)C1)C1CC1 (stereo partly drawn)
Result: FALSE

Ask: Please state whether IC50 is below 200 nM for COc1cccc(C(=O)N[C@@H]2CCN(C(c3ccncc3)c3cc4c(cc3O)OCO4)C2)c1 (stereo partly drawn)
Result: FALSE

Ask: Please state whether IC50 is below 200 nM for COC(=O)c1cccc(C(c2cc3c(cc2O)OCO3)N2CC[C@@H](NC(=O)OC(C)(C)C)C2)c1 (stereo partly drawn)
Result: FALSE

====

Target: Lysine-specific demethylase 4D (Homo sapiens) (UniProt Q6B0I6)
Experiment: Inhibition of human KDM4D expressed in Escherichia coli BL21 (DE3) at 1 uM using biotinylated H3-derived peptide and 2-OG as substrate preincubated for 15 mins followed by substrate addition and measured after 1 hr by AlphaLISA assay
Conditions: time 75.0 min
Value type: inhibition (%)
// return numeric value only (unit: %, not printed)

Examples from the recorded data:
Ask: What measured inhibition goes with CC(C)(C)OC(=O)N[C@@H]1CCN(C(c2cnccn2)c2cc3c(cc2O)OCO3)C1 (some centres undefined) ?
Result: 99

Ask: What measured inhibition goes with CC(C)(C)OC(=O)N[C@@H]1CCN(C(c2ccncc2)c2cc3c(cc2O)OCCO3)C1 (some centres undefined) ?
Result: 2.78

Ask: What measured inhibition goes with CC(C)(C)OC(=O)N[C@@H]1CCN(C(c2ccc(C#N)cc2)c2cc3c(cc2O)OCO3)C1 (some centres undefined) ?
Result: 99.4

More entries:
Ask: What measured inhibition goes with O=S(=O)(N[C@@H]1CCN(C(c2ccncc2)c2cc3c(cc2O)OCO3)C1)C1CC1 (some centres undefined) ?
Result: 99.3

Ask: What measured inhibition goes with CC(C)(C)OC(=O)N[C@@H]1CCN(C(c2ccncc2)c2cc3c(cc2O)CCC3)C1 (some centres undefined) ?
Result: -6.01

Ask: What measured inhibition goes with CC(=O)N[C@@H]1CCN(C(c2ccncc2)c2cc3c(cc2O)OCO3)C1 (some centres undefined) ?
Result: 77.5

Ask: What measured inhibition goes with O=C(NC1CC1)[C@@H]1CCN(C(c2ccncc2)c2cc3c(cc2O)OCO3)C1 (some centres undefined) ?
Result: 98.3

Ask: What measured inhibition goes with CC(C)(C)OC(=O)N[C@@H]1CCN(C(c2cccc(-c3cccnc3)c2)c2cc3c(cc2O)OCO3)C1 (some centres undefined) ?
Result: 96.2

Ask: What measured inhibition goes with CC(C)(C)OC(=O)N[C@@H]1CCN(C(c2cc3c(cc2O)OCO3)c2ccc(Cl)cc2F)C1 (some centres undefined) ?
Result: 99.3
